Data provenance is PubChem BioAssay (NCI).

Tested on: 786-0 renal
Assay: NCI tumour cell line growth inhibition, 48 h
readout-kind: TGI

Qu. Give the measured TGI of O=C1c2sccc2-c2cccc3cccc1c23 (tested in a mixture with another compound) .
Ans. > 100 µM

Qu. Entry under review: Clc1cc(Cl)cc(N=C/C=C/Nc2cc(Cl)cc(Cl)c2)c1 . Reported TGI?
Ans. 31.4 µM

Qu. Quick check: TGI of CCOC(=O)C1(F)S(=O)(=O)OCCOS1(=O)=O ?
Ans. > 100 µM

Qu. Fill in: TGI of O=C(NC1CCN(Cc2ccccc2)CC1)c1ccc(I)cc1 is ___
Ans. > 100 µM

Qu. Look at this compound and give its reported TGI. [O-]c1c2cc(-[n+]3c(-c4ccccc4)cc(-c4ccccc4)cc3-c3ccccc3)cc1COCCOCCOCCOCCOC2
Ans. > 100 µM

Qu. Reported TGI, compound COc1cc2c(c(O)c1OC)C(=O)[C@@H]1CCC(=O)N1C2 : ____
Ans. > 100 µM

Qu. Param item = Cc1cc(C)nc(NS(=O)(=O)c2ccc(Nc3c4ccccc4nc4c(C(=O)Nc5ccc(S(=O)(=O)N=C(N)N)cc5)cccc34)cc2)n1 ; retrieve measured TGI.
Ans. > 100 µM

Qu. Returns the measured TGI for the input compound. Input: O=C(N/N=C/c1ccc([N+](=O)[O-])cc1)Nc1ccc(C(=O)O)cc1
Ans. > 100 µM

Qu. # TGI lookup, item CC1(C)OC(=S)N(c2ccccc2)C12C=Cc1ccccc1O2 (stereo not given)
Ans. > 100 µM

Qu. I am curious: what TGI value has been reported for COC1=C(OC)C(=O)C(SC/C=C(\C)CCCC(C)CCCC(C)CCCC(C)C)=CC1=O (stereo not given) ?
Ans. > 100 µM

Qu. What does the record list as TGI for CCCCCCNC(=O)Oc1ccc(/C(=C(\C)c2ccc(Cl)cc2)c2ccc(OCCN3CCCCC3)cc2)cc1 ?
Ans. 6.41 µM

Qu. What value of TGI has been reported for the following compound? Fc1ccc(N2C(=S)SC(=Nc3ccccc3)C2=Nc2ccccc2)cc1
Ans. > 100 µM

Qu. Look up TGI: Nc1ncnc2oc(C3OC(COC(=O)c4ccccc4)C(OC(=O)c4ccccc4)C3OC(=O)c3ccccc3)nc12 (stereo not given)
Ans. > 100 µM

Qu. Which TGI is listed for O=c1c2cc(S(=O)(=O)O)ccc2nc(COc2ccc(Oc3ccc(Cl)cc3Cl)cc2)n1-c1ccc(Oc2ccc(Cl)cc2)cc1Cl ?
Ans. 40.7 µM

Qu. So what's the measured TGI for this one? CC1(C)OCC([C@H]2O[C@@H](CC(=S)NCCCCCCCCCCCCNC(=S)C[C@H]3O[C@@H](C4COC(C)(C)O4)[C@H]4OC(C)(C)O[C@H]43)[C@H]3OC(C)(C)O[C@H]32)O1 (stereo not given in full)
Ans. > 100 µM

Qu. GET /values?readout=TGI&item= c1ccc2c(c1)Nc1ccncc1S2
Ans. > 100 µM

Qu. What value of TGI has been recorded for this entry: COc1ccc(CCC2c3cc(OC)c(OC)cc3CCN2C)cc1OC (stereo not given)
Ans. > 100 µM

Qu. Consider the compound shown here: COC(=O)/C=C(\CC(=O)OC)n1nnnc1[C@@H]1C[C@H](COC(c2ccccc2)(c2ccccc2)c2ccccc2)[C@H]2OC(C)(C)O[C@H]21 What is its recorded TGI?
Ans. > 100 µM

Qu. GET /values?readout=TGI&item= OCCN(CCO)c1ncnc2nc[nH]c12
Ans. > 100 µM

Qu. Requested read-out: TGI. Entry: COc1ncnc(NS(=O)(=O)c2ccc(N=C3C(=O)N(CN4CCN(c5c(F)cc6c(=O)c(C(=O)O)cn(C7CC7)c6c5OC)CC4C)c4ccc(Br)cc43)cc2)c1OC (stereo not given)
Ans. > 50 µM

Qu. Please report the recorded TGI for O=C(O)c1cccc(C(=O)O)c1S(=O)Cc1ccccc1 (stereo not given) .
Ans. > 100 µM

Qu. So what does the record say about TGI for O=C(/C=C/c1ccccc1)Oc1ccc(C(=O)/C=C/c2ccc(Cl)cc2)cc1 ?
Ans. > 100 µM

Qu. Query (compound): CCOP1(=O)CC(C)=C(Cl)C(O)C1 (stereo not given) ; field requested: TGI
Ans. > 100 µM

Qu. TGI lookup needed for CC12C=CC(=O)C=C1CCC1C3CCC(O)(C(=O)CO)C3(C)CC(O)C12F (stereo not given) , thanks.
Ans. > 100 µM

Qu. Give its TGI value. Item: Nc1nc(Nc2ccccc2)c2[nH]cnc2n1
Ans. > 100 µM

Qu. Look up TGI for this compound: O=c1[nH]nc(Cc2ccccc2)n1C1CCCC1
Ans. > 100 µM

Qu. For Cc1ccc(NC(=O)CC2C(=O)Nc3ccccc3S2(=O)=O)c(C)c1 (stereo not given) , what is its reported TGI?
Ans. 40.3 µM

Qu. # get_value(readout='TGI', item= COc1cc2c(cc1OC)-c1ncc3c(OC)c(OC)c(OC)cc3c1C2 )
Ans. > 100 µM

Qu. # lookup: TGI of COc1cc(O)c2c(=O)c(O)c(-c3ccc(O)c(OC)c3)oc2c1
Ans. > 100 µM

Qu. Looking for the measured TGI of N#CC1=C(/N=C/c2ccccc2)Oc2c(ccc3ccccc23)C1c1ccccc1 (stereo not given) , can you help?
Ans. > 100 µM

Qu. Which TGI is listed for COc1ccc(Oc2cccc(C3C4C(=O)N(c5ccc(C)c(Cl)c5)C(=O)C4ON3C(C(N)=O)c3ccccc3)c2)cc1 (stereo not given) ?
Ans. > 50 µM

Qu. Name the recorded TGI for O=C(c1ccccc1)N(C(=O)c1ccccc1)c1nc(SCc2ccccc2)ns1 .
Ans. 70.5 µM

Qu. For the compound O=S(=O)(/C=C/C(=C/c1ccccc1)S(=O)(=O)c1ccccc1)c1ccccc1 , what TGI is on record?
Ans. 3.15 µM

Qu. Record request: TGI value, item NC(=O)NNC(=O)NC12CC3CC(CC(C3)C1)C2
Ans. > 100 µM

Qu. I am curious: what TGI value has been reported for c1cc2nnc1SCCCSc1ccc(nn1)SCCCS2 ?
Ans. > 100 µM

Qu. Record request: TGI value, item CCN(CC)CCCCCCNc1cc(OC)cc2cccnc12
Ans. 4.32 µM

Qu. Tell me the measured TGI of O=[N+]([O-])c1ccc(-c2nc3ccc(Cl)cc3[nH]2)cc1 , please.
Ans. > 100 µM

Qu. Which TGI value belongs to CC(C)C(C(=O)O)N1C(=O)c2ccccc2C1=O (stereo not given) ?
Ans. > 100 µM

Qu. Consider the compound shown here: COc1ccc2c(c1)c1c(n2CCN(C)C)-c2ccccc2CC1 What is its recorded TGI?
Ans. 30.4 µM

Qu. Give its TGI value. Item: C[C@]12CC[C@@H]3c4cc(OC(F)F)c(OS(N)(=O)=O)cc4CC[C@H]3[C@@H]1CC[C@@H]2O
Ans. 29.1 µM
